- study system: Mcl-1 protein (UniProtKB primary accession number: Q07820) (Homo sapiens, UniProt Q07820)
- Sequence (Q07820 whole entry): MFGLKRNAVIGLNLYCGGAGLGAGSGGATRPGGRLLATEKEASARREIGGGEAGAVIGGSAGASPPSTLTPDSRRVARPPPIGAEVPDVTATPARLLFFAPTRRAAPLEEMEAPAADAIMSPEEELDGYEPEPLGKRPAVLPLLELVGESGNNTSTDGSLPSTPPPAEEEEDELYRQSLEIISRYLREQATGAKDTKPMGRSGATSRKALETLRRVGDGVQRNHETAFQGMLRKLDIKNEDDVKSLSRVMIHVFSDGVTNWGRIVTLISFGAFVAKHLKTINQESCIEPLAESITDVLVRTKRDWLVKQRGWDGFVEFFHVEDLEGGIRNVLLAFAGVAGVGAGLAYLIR
- method description: Inhibition of Mcl-1 by fluorescence polarisation, Method 1
- Assay type: binding
- conditions used: fluorescence polarisation test; Method 2 values are underlined in the patent (underlining not visible here); read-out: IC50 (M) Mcl-1 FP
measured quantity: IC50 (M)

Use these answered entries as a reference point.
INSERT INTO measurements (compound, measured_quantity, measured_number) VALUES
  ('Cc1cnccc1-c1nccc(COc2ccccc2CC(Oc2ncnc3sc(-c4ccc(F)cc4)c(-c4ccc(OCCN(C)C)c(Cl)c4C)c23)C(=O)O)n1 (stereo not drawn)', 'IC50', '5.5e-09'),
  ('Cc1c(-c2c(-c3ccc(F)cc3)sc3ncnc(OC(Cc4ccccc4OCc4ccnn4CCC(C)C)C(=O)O)c23)ccc(OCCN2CCN(C)CC2)c1Cl (stereo not drawn)', 'IC50', '5.1e-09'),
  ('COc1ccc(F)cc1CC(Oc1ncnc2sc(-c3ccco3)c(-c3ccc(OCCN4CCN(C)CC4)c(Cl)c3C)c12)C(=O)O (stereo not drawn)', 'IC50', '8.6e-09'),
  ('Cc1c(-c2c(-c3ccc(F)o3)sc3ncnc(OC(Cc4ccccc4OCCN(C)C)C(=O)O)c23)ccc(OCCN2CCN(C)CC2)c1Cl (stereo not drawn)', 'IC50', '7.7e-09');

A = CCCNC(=O)COc1ccccc1CC(Oc1ncnc2sc(-c3ccc(F)o3)c(-c3ccc(OCCN4CCN(C)CC4)c(Cl)c3C)c12)C(=O)O (stereo not drawn)
B = Cc1c(-c2c(-c3ccco3)sc3ncnc(OC(Cc4ccccc4OCc4ccnn4C4CCCC4)C(=O)O)c23)ccc(OCCN2CCN(C)CC2)c1Cl (stereo not drawn)
// query Please state the entry with greater IC50 among A and B . Write down the label of the entry you select.
// result A
(A: 6.6e-09 M, B: 3.9e-09 M)

* * *

- study system: Mcl-1 protein (UniProtKB primary accession number: Q07820) (Homo sapiens, UniProt Q07820)
- method description: Inhibition of Mcl-1 by fluorescence polarisation, Method 1
- Assay type: binding
- conditions used: fluorescence polarisation; Method 1, or Method 2; read-out: IC50 (M) Mcl-1 FP
measured quantity: IC50 (M)

Use these answered entries as a reference point.
INSERT INTO measurements (compound, measured_quantity, measured_number) VALUES
  ('COC(=O)c1ccc(-c2sc3ncnc(OC(Cc4ccccc4OC)C(=O)O)c3c2-c2ccc(OCCN3CCN(C)CC3)c(Cl)c2C)o1 (stereo not shown)', 'IC50', '1.1e-07'),
  ('CCCCn1nccc1COc1ccccc1CC(Oc1ncnc2sc(-c3ccc(O)cc3)c(-c3ccc(OCCN4CCN(C)CC4)c(Cl)c3C)c12)C(=O)O (stereo not shown)', 'IC50', '3.7e-09');

1 = C=Cc1ccc(-c2sc3ncnc(OC(Cc4ccccc4OC)C(=O)O)c3c2-c2ccc(OCCN3CCN(C)CC3)c(Cl)c2C)o1 (stereo not shown)
2 = CCc1sc2ncnc(OC(Cc3ccccc3)C(=O)O)c2c1-c1cc2nc(CN3CCOCC3)oc2c(Cl)c1C (stereo not shown)
// query Hi! Which is lower in terms of IC50, the first one 1 or the second one 2 ? Write down the label of the entry you select.
// result 1
(1: 2.9e-08 M, 2: 1.1e-07 M)

* * *

- study system: Mcl-1 protein (UniProtKB primary accession number: Q07820) (Homo sapiens, UniProt Q07820)
- method description: Inhibition of Mcl-1 by fluorescence polarisation, Method 1
- Format: binding
- conditions used: fluorescence polarisation test; Method 2 values are underlined in the patent (underlining not visible here); read-out: IC50 (M) Mcl-1 FP
measured quantity: IC50 (M)

Use these answered entries as a reference point.
INSERT INTO assay_data (compound, measured_quantity, display_unit, measured_number) VALUES
  ('Cc1c(-c2c(-c3ccc(F)cc3)sc3ncnc(O[C@H](Cc4ccccc4OCc4cnccn4)C(=O)O)c23)ccc(OCC2CCCCN(C)C2)c1Cl (stereo partly drawn) [Example 144]', 'IC50', 'M', '1.6e-08'),
  ('Cc1cscc1-c1nccc(COc2ccccc2CC(Oc2ncnc3sc(-c4ccc(F)cc4)c(-c4ccc(OCCN5CCN(C)CC5)c(Cl)c4C)c23)C(=O)O)n1 (stereo not drawn) [Example 124]', 'IC50', 'M', '4.3e-09'),
  ('Cc1c(-c2c(-c3ccc(F)cc3)sc3ncnc(OC(Cc4ccccc4OCc4ccnc(Oc5ccccc5)n4)C(=O)O)c23)ccc(OCCN2CCN(C)CC2)c1Cl (stereo not drawn) [Example 56]', 'IC50', 'M', '4.4e-09');

a = Cc1c(-c2c(-c3ccco3)sc3ncnc(OC(Cc4ccccc4OCc4cocn4)C(=O)O)c23)ccc(OCCN2CCN(C)CC2)c1Cl (stereo not drawn) [Example 280]
b = Cc1c(-c2c(-c3ccc(F)cc3)sc3ncnc(OC(Cc4ccccc4OCc4cnccn4)C(=O)O)c23)ccc(OCCN(C)C)c1Cl (stereo not drawn) [Example 134]
c = COCc1nccc(COc2ccccc2CC(Oc2ncnc3sc(-c4ccc(F)cc4)c(-c4ccc(OCCN5CCN(C)CC5)c(Cl)c4C)c23)C(=O)O)n1 (stereo not drawn) [Example 45]
// query Put the items in sequence by IC50, from largest down. Respond with an ordered listing of the labels, as requested.
// result b, c, a
(b: 1.3e-08 M, c: 6.7e-09 M, a: 4e-09 M)

* * *

- study system: Mcl-1 protein (UniProtKB primary accession number: Q07820) (Homo sapiens, UniProt Q07820)
- method description: Inhibition of Mcl-1 by fluorescence polarisation, Method 1
- Type: binding
- conditions used: fluorescence polarisation; Method 1, or Method 2; read-out: IC50 (M) Mcl-1 FP
measured quantity: IC50 (M)

INSERT INTO measurements (compound, study_system, measured_number) VALUES
  ('COc1ccccc1CC(Oc1ncnc2sc(-c3ccc(Br)o3)c(-c3ccc(OCCN4CCN(C)CC4)c(Cl)c3C)c12)C(=O)O (stereo not drawn)', 'Mcl-1 protein (UniProtKB primary accession number: Q07820) (Homo sapiens, UniProt Q07820)', '7.6e-09');

I = COc1nccc(COc2ccccc2CC(Oc2ncnc3sc(-c4ccc(F)c(OCCN(C)C)c4)c(-c4ccc(OC)c(Cl)c4C)c23)C(=O)O)n1 (stereo not drawn)
II = COc1ccccc1-c1nccc(COc2ccccc2CC(Oc2ncnc3sc(-c4ccc(OCc5ccc(Cl)cc5)cc4)c(-c4ccc(OCCN5CCN(C)CC5)c(Cl)c4C)c23)C(=O)O)n1 (stereo not drawn)
// query Please state the entry with greater IC50 among I and II . Write down the label of the entry you select.
// result I

* * *

- study system: Mcl-1 protein (UniProtKB primary accession number: Q07820) (Homo sapiens, UniProt Q07820)
- method description: Inhibition of Mcl-1 by fluorescence polarisation, Method 1
- Type: binding
- conditions used: fluorescence polarisation; Method 1, or Method 2; read-out: IC50 (M) Mcl-1 FP
- Description: The relative binding potency of each compound was determined via Fluorescence Polarisation (FP). An 11 point serial dilution of each compound was prepared in DMSO and 2 μl transferred into flat bottomed, low binding, 384-well plate (final DMSO concentration 5%). […]
measured quantity: IC50 (M)

INSERT INTO measurements (molecule, measured_number) VALUES
  ('COc1ccccc1CC(Oc1ncnc2sc(-c3ccc(Cl)cc3)c(-c3ccc(OCCN4CCN(C)CC4)c(Cl)c3C)c12)C(=O)O (stereo not shown)', '7.2e-08');

I = COCc1cc(-c2sc3ncnc(OC(Cc4ccccc4OCc4ccnc(OC)n4)C(=O)O)c3c2-c2ccc(OCCN3CCN(C)CC3)c(Cl)c2C)ccc1F (stereo not shown)
II = CCc1sc2ncnc(OC(Cc3ccccc3)C(=O)O)c2c1-c1ccc(OCCNC(C)=O)c(Cl)c1C (stereo not shown)
// query Please state the entry with greater IC50 among I and II . Write down the label of the entry you select.
// result II

* * *

- study system: Mcl-1 protein (UniProtKB primary accession number: Q07820) (Homo sapiens, UniProt Q07820)
- method description: Inhibition of Mcl-1 by fluorescence polarisation, Method 1
- Assay type: binding
- conditions used: fluorescence polarisation test; Method 2 values are underlined in the patent (underlining not visible here); read-out: IC50 (M) Mcl-1 FP
- Experimental: The relative binding potency of each compound was determined via Fluorescence Polarisation (FP). An 11 point serial dilution of each compound was prepared in DMSO and 2 μl transferred into flat bottomed, low binding, 384-well plate (final DMSO concentration 5%). […]
measured quantity: IC50 (M)

Use these answered entries as a reference point.
INSERT INTO results (molecule, measured_quantity, display_unit, measured_number) VALUES
  ('COCCOCCn1nccc1COc1ccccc1CC(Oc1ncnc2sc(-c3ccc(F)cc3)c(-c3ccc(OCCN4CCN(C)CC4)c(Cl)c3C)c12)C(=O)O (stereo not drawn) [Example 90]', 'IC50', 'M', '3.2e-09'),
  ('Cc1c(-c2c(-c3ccco3)sc3ncnc(OC(Cc4ccccc4OCc4cnccn4)C(=O)O)c23)ccc(OCCN2CCN(C)CC2)c1Cl (stereo not drawn) [Example 275]', 'IC50', 'M', '4.5e-09'),
  ('COc1ccccc1CC(Oc1ncnc2sc(-c3ccco3)c(-c3ccc(OC4CCCN(C)C4)c(Cl)c3C)c12)C(=O)O (single isomer, unassigned) [Example 301]', 'IC50', 'M', '1.2e-08'),
  ('Cc1c(-c2c(-c3ccco3)sc3ncnc(OC(Cc4ccccc4OCC(F)(F)F)C(=O)O)c23)ccc(OCCN2CCN(C)CC2)c1Cl (stereo not drawn) [Example 221]', 'IC50', 'M', '6.3e-09'),
  ('Cc1c(-c2c(-c3ccco3)sc3ncnc(OC(Cc4ccccc4OCc4cncs4)C(=O)O)c23)ccc(OCCN2CCN(C)CC2)c1Cl (stereo not drawn) [Example 278]', 'IC50', 'M', '6.7e-09'),
  ('COc1ccccc1CC(Oc1ncnc2sc(-c3ccco3)c(-c3ccc(OCC4CCN(C)CC4)c(Cl)c3C)c12)C(=O)O (stereo not drawn) [Example 311]', 'IC50', 'M', '1.5e-08'),
  ('Cc1c(-c2c(-c3ccc(Cl)o3)sc3ncnc(OC(Cc4ccccc4OCc4ccnn4C)C(=O)O)c23)ccc(OCCN2CCN(C)CC2)c1Cl (stereo not drawn) [Example 371]', 'IC50', 'M', '5.6e-09'),
  ('CNC(=O)COc1ccccc1CC(Oc1ncnc2sc(-c3ccco3)c(-c3ccc(OCCN4CCN(C)CC4)c(Cl)c3C)c12)C(=O)O (stereo not drawn) [Example 218]', 'IC50', 'M', '6.5e-09'),
  ('COc1ccccc1CC(Oc1ncnc2sc(-c3ccco3)c(-c3ccc(OCC4CN(C)CCN4C)c(Cl)c3C)c12)C(=O)O (stereo not drawn) [Example 313]', 'IC50', 'M', '1e-08'),
  ('COc1ccccc1C[C@@H](Oc1ncnc2sc(-c3ccco3)c(-c3ccc(OCCN4CCN(C)CC4)c(Cl)c3F)c12)C(=O)O [Example 337]', 'IC50', 'M', '3.8e-08');

I = Cc1c(-c2c(-c3ccc(F)cc3)sc3ncnc(OC(Cc4ccccc4OCC4CCCO4)C(=O)O)c23)ccc(OCCN2CCN(C)CC2)c1Cl (stereo not drawn) [Example 2]
II = Cc1c(-c2c(-c3ccc(F)o3)sc3ncnc(OC(Cc4ccccc4OCc4cccc(C(F)(F)F)n4)C(=O)O)c23)ccc(OCCN2CCN(C)CC2)c1Cl (stereo not drawn) [Example 164]
// query Please state the entry with greater IC50 among I and II . Write down the label of the entry you select.
// result I

I = Cc1c(-c2c(-c3ccc(F)cc3)sc3ncnc(OC(Cc4ccccc4OCc4ccnc(-n5cccn5)n4)C(=O)O)c23)ccc(OCCN2CCN(C)CC2)c1Cl (stereo not drawn) [Example 49]
II = COc1ccccc1CC(Oc1ncnc2sc(-c3ccco3)c(-c3ccc(OCCN4CCN(CC(F)(F)F)CC4)c(Cl)c3C)c12)C(=O)O (stereo not drawn) [Example 327]
III = Cc1c(-c2c(-c3ccc(F)cc3)sc3ncnc(OC(Cc4ccccc4OCc4ccnc(-c5cccnc5)n4)C(=O)O)c23)ccc(OCCN2CCN(C)CC2)c1Cl (stereo not drawn) [Example 32]
IV = Cc1c(-c2c(-c3ccco3)sc3ncnc(OC(Cc4ccccc4OCCOCc4ccccc4)C(=O)O)c23)ccc(OCCN2CCN(C)CC2)c1Cl (stereo not drawn) [Example 292]
// query Sort (4 molecules) by IC50: min first. Respond with an ordered listing of the labels, as requested.
// result I, III, IV, II
(I: 2.5e-09 M, III: 4.8e-09 M, IV: 9.3e-09 M, II: 1.5e-08 M)

I = Cc1c(-c2c(-c3ccco3)sc3ncnc(OC(Cc4ccccc4OCc4ccc5ccccc5n4)C(=O)O)c23)ccc(OCCN2CCN(C)CC2)c1Cl (stereo not drawn) [Example 234]
II = CCOc1nccc(COc2ccccc2CC(Oc2ncnc3sc(-c4ccc(F)cc4)c(-c4ccc(OCCN(C)C)c(Cl)c4C)c23)C(=O)O)n1 (stereo not drawn) [Example 130]
III = Cc1c(-c2c(-c3ccc(F)cc3)sc3ncnc(OC(Cc4ccccc4OCc4cnccn4)C(=O)O)c23)ccc(OCCN2CCN(C)CC2)c1Cl (stereo not drawn) [Example 91]
// query Put the items in sequence by IC50, from largest down. Respond with an ordered listing of the labels, as requested.
// result I, III, II

A = COCCOc1ccccc1CC(Oc1ncnc2sc(-c3ccc(F)o3)c(-c3ccc(OCCN4CCN(C)CC4)c(Cl)c3C)c12)C(=O)O (stereo not drawn) [Example 194]
B = CCCCn1nncc1COc1ccccc1CC(Oc1ncnc2sc(-c3ccc(F)cc3)c(-c3ccc(OCCN4CCN(C)CC4)c(Cl)c3C)c12)C(=O)O (stereo not drawn) [Example 95]
// query Hi! Which is lower in terms of IC50, the first one A or the second one B ? Write down the label of the entry you select.
// result B

Origin of the recorded values: patent US9670227B2
